Measured melting point, listed per entry for reference.

Past entries and their recorded results:
MOLECULE	REPORTED_MEASUREMENT
Cc1cc(C)c(COC2CC(n3cc(F)c(=O)[nH]c3=O)OC2CO)c(C)c1 (configuration not stated)	179 to 181 °C
CCOC(=O)c1cnc(Cc2ccccc2)c(C)c1Cl	233 to 245 °C
COc1ccc(S(=O)(=O)Nc2ccccc2NC(=O)c2ccccc2)cc1	167 to 168 °C
COc1cccc([N+](=O)[O-])c1N	67 to 68 °C
CCOC(=O)C(=O)Nc1ccc(C(=O)NC2CCN(C3CCCCC3)C2)cc1 (configuration not stated)	138 to 141 °C
CCCCCCCCCCCCCCN(C(=O)CCCCCCCCCCC)C1(N)OC(CO)C(O)C(O)C1C(=O)C(N)C(=O)C(N)CO (configuration not stated)	141 to 143 °C

**Query** Quick check: melting point of O=C1NC(=O)C2(CC(O)c3ccccc32)N1 (configuration not stated) ?
**Result** 260 to 263 °C

**Query** Could you share which melting point value was measured for `Cc1cc(C(=O)NC/C=C\COc2ncccc2CN2CCCCC2)n[nH]1` ?
**Result** 93 to 95 °C

**Query** Data request, read-out melting point, for `COc1ccc(-c2cccc(NC(N)=O)c2)cc1OC1CCCC1`
**Result** 174 to 175 °C

**Query** State the recorded melting point for this entry: `O=C1N[C@H](C(=O)NCCCCO[N+](=O)[O-])CS1`
**Result** 68 to 70 °C

**Query** melting point lookup needed for `CN(C)c1nc2sc3c(NCc4cccnc4)ncnc3c2c2c1CCC(C)(C)C2` , thanks.
**Result** 208 to 209 °C

**Query** Report melting point for O=c1[nH]c(N2CCNC(CO)C2)cc2ccccc12 (configuration not stated) please.
**Result** > 120 °C

**Query** Which value of melting point has been reported for CC1(C)CC(=O)C(F)C(C)(C)C1 (configuration not stated) in the records?
**Result** 27 to 31 °C

**Query** # input molecule: `CNC(=S)NS(=O)(=O)c1cc(CCNC(=O)c2cc(Cl)ccc2OC)ccc1-c1ccc(OC)cc1` ; wanted: its melting point
**Result** 185 to 188 °C
